- Test Target: DNA dC->dU-editing enzyme APOBEC-3G (Homo sapiens)
- Method Description: qHTS for inhibitors of Vif-A3G interactions: Cherry picks counterscreen;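 also: max response given as percent of control signal; hits raise yellow fluorescence by blocking Vif-driven A3G-eYFP degradation; nearly all actives have a fitted effect of over 70% in size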
- Recorded Conditions: HeLa A3G-eYFP + Vif (tagged APOBEC3G with the HIV-1 protein that degrades it), eYFP fluorescence, 24 h
Out of some 2,100 compounds screened, about 1,100 (52%) were called active. Inconclusive results (about 27%) are left out. So high a share suggests a set chosen from earlier hits. Some of the results follow.
Field: max response. Provide a value for each of the compounds that follow.
Reply with just the number (in %).

Form field: reported max response of CCOC1=C2CN(S(=O)(=O)c3ccc(C)cc3)[C@H](c3cccc4ccccc34)C[C@H]2C(C#N)(C#N)C(C#N)(C#N)C1
-20.1

Can you look up the measured max response of CCCOc1cc(N(CC)CC)ccc1/C=C(/C#N)c1nc2ccc(C)cc2[nH]1 for me?
37.6

Query: max response; subject: Cc1cc(/C=N/NC(=O)c2cc3ccccc3o2)c(C)n1C
-4.16

Value source: PubChem BioAssay AID651813
